Parameter: pIC50. Scope: all listed entries.
test_system: RORγ ligand binding domain (LBD) (Homo sapiens, UniProt P51449)
Construct: made in house; host or cells: E. coli BL-21 (BL3), vector pDEST15
experiment: TR-FRET Activity Assay (ligand sensing, RORγ-LBD / coactivator peptide interaction)
Format: biochemical
test_conditions: read-out: RORγ activity in the TR-FRET Activity Assay (IC50 FRET), Group
Description: This method measures the ability of putative ligands to modulate the interaction between the purified bacterial expressed RORγ ligand binding domain (LBD) and synthetic N-terminally biotinylated peptides which are derived from nuclear receptor coactivator proteins such as but not limited to SRC1 (NcoA1), SRC2 (NcoA2, TIF2), SRC3 (NcoA3), PGC1α, PGC1β, CBP, GRIP1, TRAP220, RIP140. […] This is identical to the “four parameter logistic equation”. The IC50 values are calculated using this equation.
pIC50: −log10 of the molar value.
outcome_measure: pIC50

{"compound_smiles": "Cc1c(S(N)(=O)=O)cc(-c2cn(S(=O)(=O)N3CCCCC3)c3ccccc23)n1CC1CCCCC1", "test_system": "RORγ ligand binding domain (LBD) (Homo sapiens, UniProt P51449)", "outcome_measure": "pIC50", "value_reported": "5.70 to 6.30"}
{"compound_smiles": "Cc1c(S(N)(=O)=O)cc(-c2cc(C(C)(C)C)cc(C(C)(C)C)c2)n1CC1CCCCC1", "test_system": "RORγ ligand binding domain (LBD) (Homo sapiens, UniProt P51449)", "outcome_measure": "pIC50", "value_reported": "> 6.30"}
{"compound_smiles": "Cc1c(S(=O)(=O)NCCC(N)=O)cc(-c2cc(C(C)(C)C)cc(C(C)(C)C)c2)n1CC1CCCCC1", "test_system": "RORγ ligand binding domain (LBD) (Homo sapiens, UniProt P51449)", "outcome_measure": "pIC50", "value_reported": "> 6.30"}
{"compound_smiles": "Cc1c(S(N)(=O)=O)cc(-c2cc(OCC(C)C)nc(C(C)(C)C)c2)n1CC1CCCCC1", "test_system": "RORγ ligand binding domain (LBD) (Homo sapiens, UniProt P51449)", "outcome_measure": "pIC50", "value_reported": "> 6.30"}

----------
Parameter: IC50. Scope: all listed entries.
test_system: RORγ ligand binding domain (LBD) (Homo sapiens)
Construct: made in house; host or cells: E. coli BL-21 (BL3), vector pDEST15
Sequence (P51449 269-508 limits assumed): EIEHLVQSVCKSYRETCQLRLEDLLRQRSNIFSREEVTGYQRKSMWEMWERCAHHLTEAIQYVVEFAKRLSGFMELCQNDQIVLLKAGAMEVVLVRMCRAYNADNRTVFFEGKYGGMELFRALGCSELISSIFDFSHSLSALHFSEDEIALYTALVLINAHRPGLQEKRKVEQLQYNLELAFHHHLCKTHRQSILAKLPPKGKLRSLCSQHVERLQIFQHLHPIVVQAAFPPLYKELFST
experiment: TR-FRET Activity Assay (ligand sensing, RORγ-LBD / coactivator peptide interaction)
Assay type: biochemical
test_conditions: read-out: RORγ activity in the TR-FRET Activity Assay (IC50 FRET), Group
outcome_measure: IC50

{"compound": "Cc1c(S(N)(=O)=O)cc(-c2cc(C(=O)N(C)C(C)(C)C)cc(C(F)(F)F)c2)n1CC1CCCCC1 [13/14]", "value_reported": "> 2000 nM"}
{"compound": "Cc1c(S(N)(=O)=O)cc(-c2cc(OCC(F)(F)F)nc(C(C)(C)C)c2)n1CC1CCCCC1 [12/12]", "value_reported": "< 500 nM"}
{"compound": "Cc1c(S(N)(=O)=O)cc(-c2cc(C(C)(C)C)cc(C(C)(C)CF)c2)n1CC1CCCCC1 [12/26]", "value_reported": "> 2000 nM"}
{"compound": "Cc1c(S(=O)(=O)NCC(C)(C)C(=O)O)cc(-c2cc(C(C)(C)C)cc(C3(C)CC3)c2)n1CC1CCCCC1 [11/1]", "value_reported": "> 2000 nM"}

----------
Parameter: IC50. Scope: all listed entries.
test_system: RORγ ligand binding domain (LBD) (Homo sapiens)
Construct: made in house; host or cells: E. coli BL-21 (BL3), vector pDEST15
experiment: TR-FRET Activity Assay (ligand sensing, RORγ-LBD / coactivator peptide interaction)
Assay type: biochemical
test_conditions: read-out: RORγ activity in the TR-FRET Activity Assay (IC50 FRET), Group
outcome_measure: IC50

{"compound_smiles": "COc1cc(-c2cc(S(N)(=O)=O)c(C)n2CC2CCCCC2)cc(C(C)(C)C)c1", "value_reported": "> 2000 nM"}
{"compound_smiles": "Cc1c(S(=O)(=O)NC2CCCC2)cc(-c2cc(C(C)(C)C)cc(C(C)(C)C)c2)n1CC1CCCCC1", "value_reported": "500 to 2000 nM"}
{"compound_smiles": "Cc1ccc2c(-c3cc(S(N)(=O)=O)c(C)n3CC3CCCCC3)cn(S(=O)(=O)N3CCCCC3)c2c1", "value_reported": "< 500 nM"}
{"compound_smiles": "Cc1c(S(N)(=O)=O)cc(-c2cc3c(c(C(C)(C)C)c2)OCC(=O)N3C)n1CC1CCCCC1", "value_reported": "> 2000 nM"}
{"compound_smiles": "Cc1c(S(=O)(=O)NCCC(N)=O)c(Cl)c(-c2cc(C(C)(C)C)cc(C(C)(C)C)c2)n1CC1CCCCC1", "value_reported": "< 500 nM"}
{"compound_smiles": "Cc1c(S(N)(=O)=O)cc(-c2cc(C(=O)NCC(C)C)cc(C(C)(C)C)c2)n1CC1CCCCC1", "value_reported": "500 to 2000 nM"}
{"compound_smiles": "CC(=O)c1cc(-c2cc(S(N)(=O)=O)c(C)n2CC2CCCCC2)cc(C(C)(C)C)c1", "value_reported": "> 2000 nM"}
{"compound_smiles": "Cc1c(S(N)(=O)=O)cc(-c2cccc(N3CCCC3)c2)n1CC1CCCCC1", "value_reported": "> 2000 nM"}

----------
test_system: RORγ ligand binding domain (LBD) (Homo sapiens)
Construct: made in house; host or cells: E. coli BL-21 (BL3), vector pDEST15
experiment: TR-FRET Activity Assay (ligand sensing, RORγ-LBD / coactivator peptide interaction)
Assay type: biochemical
test_conditions: read-out: RORγ activity in the TR-FRET Activity Assay (IC50 FRET), Group
pIC50: −log10 of the molar value.
outcome_measure: pIC50

{"compound": "Cc1c(S(N)(=O)=O)cc(-c2ccc(S(=O)(=O)N3CCCC(C)C3)c(C(C)(C)C)c2)n1CC1CCCCC1 (stereo not shown)", "value_reported": "> 6.30"}
{"compound": "COCC(C)(C)NS(=O)(=O)c1ccc(-c2cc(S(N)(=O)=O)c(C)n2CC2CCCCC2)cc1C(F)(F)F", "value_reported": "5.70 to 6.30"}
{"compound": "CCC(=O)NCC(C)(C)c1cc(-c2cc(S(N)(=O)=O)c(C)n2CC2CCCCC2)cc(C(C)(C)C)c1", "value_reported": "< 5.70"}
{"compound": "Cc1c(S(N)(=O)=O)cc(-c2cc(C(F)(F)F)c3ncccc3c2)n1CC1CCCCC1", "value_reported": "< 5.70"}
{"compound": "CC(C)(C)c1cc(-c2cc(S(N)(=O)=O)c(C#N)n2CC2CCCCC2)cc(C(C)(C)C)c1", "value_reported": "> 6.30"}
{"compound": "Cc1c(S(=O)(=O)NCC(=O)O)cc(-c2cc(C(C)(C)C)cc(C(C)(C)C)c2)n1CC1CCCCC1", "value_reported": "< 5.70"}
{"compound": "Cc1c(S(N)(=O)=O)cc(-c2cc(C(C)(C)C)nc(C(F)(F)F)c2)n1CC1CCCCC1", "value_reported": "5.70 to 6.30"}
{"compound": "Cc1c(S(N)(=O)=O)cc(-c2cc3c(c(C(C)(C)C)c2)OCCC3=O)n1CC1CCCCC1", "value_reported": "5.70 to 6.30"}
{"compound": "CC(C)(C)c1cc(-c2c(Br)c(S(N)(=O)=O)c(Br)n2CC2CCCCC2)cc(C(C)(C)C)c1", "value_reported": "5.70 to 6.30"}
{"compound": "Cc1c(S(N)(=O)=O)cc(-c2ccc3c(c2)C(C)(C)CN(C(C)C)S3(=O)=O)n1CC1CCCCC1", "value_reported": "< 5.70"}
{"compound": "Cc1c(S(=O)(=O)NCC(C)(C)C(=O)O)cc(-c2ccc(S(=O)(=O)NC(C)(C)C)c(C(C)(C)C)c2)n1CC1CCCCC1", "value_reported": "< 5.70"}
{"compound": "Cc1c(S(=O)(=O)NCCO)cc(-c2cc(C(C)(C)C)cc(C(C)(C)C)c2)n1CC1CCCCC1", "value_reported": "> 6.30"}
{"compound": "COCCOc1cc(-c2cc(S(N)(=O)=O)c(C)n2CC2CCCCC2)cc(C(C)(C)C)n1", "value_reported": "5.70 to 6.30"}
{"compound": "Cc1c(S(N)(=O)=O)cc(-c2cc(C(C)(C)C)cc(C(C)(C)C)c2)n1CC1CCCC1", "value_reported": "5.70 to 6.30"}
{"compound": "CC(C)(C)c1cc(-c2cc(S(N)(=O)=O)c(Cl)n2CC2CCCCC2)cc(C(C)(C)C)c1", "value_reported": "> 6.30"}
{"compound": "Cc1c(S(N)(=O)=O)cc(-c2cc(C(C)(C)C)c(C#N)c(C(C)(C)C)c2)n1CC1CCCCC1", "value_reported": "> 6.30"}
